Test system: LOX IMVI
method description: NCI tumour cell line growth inhibition, 48 h
The source made the active and inactive calls. Cut-off read from the data, not from the text of the source: active = GI50 up to about 1.1 µM and inactive = higher.
assay readout: GI50

[
  {
    "compound": "Nc1cc2[nH]cnc2c(=O)[nH]1",
    "GI50": "10.5 µM (inactive)"
  }
]

State, in one line, measured GI50 of "COC(=O)/C([Se]c1c(C)cc(C)cc1C)=C(\[Se]c1c(C)cc(C)cc1C)C(=O)OC"
> 100 µM (inactive)

State, in one line, measured GI50 of "N=C(NNS(=O)(=O)c1ccccc1)Oc1ccc(Cl)cc1"
48.3 µM (inactive)

State, in one line, measured GI50 of "O=[N+]([O-])c1cc(I)cc(/C=N/NS(=O)(=O)c2ccc(Cl)cc2)c1O"
19.8 µM (inactive)

State, in one line, measured GI50 of "C/C(CC(=O)Nc1ccc(Cl)cc1)=N\NC(N)=S"
1.81 µM (inactive)

State, in one line, measured GI50 of "CC(C)c1cc(=O)[nH]c2cc(N)ccc12"
> 100 µM (inactive)

State, in one line, measured GI50 of "CCOC(=O)c1cc(=O)oc2c1N(C)c1ncccc1N2"
> 100 µM (inactive)

State, in one line, measured GI50 of Cc1c(N2C(=O)C(Cl)C2c2ccc(Cl)cc2)c(=O)n(-c2ccccc2)n1C (stereo not given)
31 µM (inactive)

State, in one line, measured GI50 of "O=C(CN1CCOCC1)Nc1nc(-c2ccc(Cl)cc2)cs1"
22.2 µM (inactive)

State, in one line, measured GI50 of CC(C)(O)C1CC[C@]2(C)[C@H]3CC[C@@H]4[C@@]5(C)CCCC(C)(C)[C@@H]5CC[C@@]4(C)[C@]3(C)CC[C@@H]12 (stereo not given in full)
> 100 µM (inactive)
